# measured_target: NLRP3 (Homo sapiens, UniProt Q96P20)
# Sequence (Q96P20 whole entry): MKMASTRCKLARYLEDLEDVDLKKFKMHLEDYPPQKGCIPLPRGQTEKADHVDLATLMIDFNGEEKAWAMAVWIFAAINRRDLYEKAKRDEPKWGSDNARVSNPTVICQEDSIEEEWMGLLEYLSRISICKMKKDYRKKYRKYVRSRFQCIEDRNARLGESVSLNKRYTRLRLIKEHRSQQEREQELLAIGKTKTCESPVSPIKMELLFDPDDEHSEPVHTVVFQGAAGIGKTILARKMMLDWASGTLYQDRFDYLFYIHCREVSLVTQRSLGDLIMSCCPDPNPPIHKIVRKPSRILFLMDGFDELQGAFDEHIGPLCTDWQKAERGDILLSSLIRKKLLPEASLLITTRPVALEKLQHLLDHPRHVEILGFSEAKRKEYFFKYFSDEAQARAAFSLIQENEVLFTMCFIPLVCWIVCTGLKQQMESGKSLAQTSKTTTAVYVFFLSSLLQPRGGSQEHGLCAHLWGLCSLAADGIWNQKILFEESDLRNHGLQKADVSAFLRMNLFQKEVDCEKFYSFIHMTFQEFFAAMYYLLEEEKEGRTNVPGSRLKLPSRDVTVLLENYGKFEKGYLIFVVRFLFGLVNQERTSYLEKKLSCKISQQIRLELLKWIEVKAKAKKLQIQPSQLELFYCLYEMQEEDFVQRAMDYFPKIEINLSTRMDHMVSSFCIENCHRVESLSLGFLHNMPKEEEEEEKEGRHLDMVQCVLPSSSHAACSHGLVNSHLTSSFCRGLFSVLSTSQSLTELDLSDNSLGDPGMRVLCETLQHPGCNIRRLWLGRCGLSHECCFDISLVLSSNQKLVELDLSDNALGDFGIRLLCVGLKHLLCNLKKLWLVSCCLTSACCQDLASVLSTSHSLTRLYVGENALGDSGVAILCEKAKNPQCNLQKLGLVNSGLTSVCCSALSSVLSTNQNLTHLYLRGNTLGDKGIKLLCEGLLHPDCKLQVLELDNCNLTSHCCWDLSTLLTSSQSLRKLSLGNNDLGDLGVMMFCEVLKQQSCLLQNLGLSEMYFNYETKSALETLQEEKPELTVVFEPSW
# protocol_text: Human PBMC NLRP3 Assay
# Format: cell-based
# protocol_conditions: human PBMCs primed with LPS 4 h, compound 30 min, ATP 5 mM 1 h; cytokine measurement on mesoscale platform; potency code
pIC50: −log10 of the molar value.
Below: a set of entries, each annotated with reported pIC50.

- compound: "Oc1cc(Cl)ccc1-c1nnc(N[C@H]2CCOC2)c2cnccc12 [Compound 89]"
  pIC50: "> 6.52"
- compound: "Clc1ccc(-c2nnc(NCC3CCCO3)c3ccncc23)cc1 (stereo not shown) [Compound 15]"
  pIC50: "< 6.00"
- compound: "Clc1ccc(-c2nnc(NC[C@H]3CCCO3)c3cc(Cl)ccc23)cc1 (racemic) [Compound 21]"
  pIC50: "6.30 to 6.52"
- compound: "FC(F)(F)c1ccc(-c2nnc(NCC3CCCO3)c3ccccc23)cc1 (stereo not shown) [Compound 11]"
  pIC50: "> 6.52"
- compound: "CC1(CNc2ccc(-c3ccc(Br)cc3)nn2)CCCO1 (stereo not shown) [Compound 6]"
  pIC50: "< 6.00"

Write down the reported pIC50 of CC(C)(O)CNc1nnc(-c2ccc(Cl)cc2O)c2ccncc12 [Compound 82] , test system: NLRP3 (Homo sapiens, UniProt Q96P20). > 6.52

Find pIC50 (NLRP3 (Homo sapiens, UniProt Q96P20)) for the entry Oc1cc(Cl)ccc1-c1nnc(NC[C@H]2CCC(F)(F)C2)c2cnccc12 (single isomer, unassigned) [Compound 91] > 6.52

====

# measured_target: NLRP3 (Homo sapiens, UniProt Q96P20)
# protocol_text: Human whole blood (hWB) NLRP3 Assay
# Format: cell-based
# Parameters: Blood is collected from healthy volunteers in heparin lithium tubes; from tissue; host or cells: pooled heparinised whole blood from healthy human volunteers, LPS-primed, ATP-stimulated
# protocol_conditions: LPS 1 ug/mL 4.5 h, compound 30 min, ATP 5 mM 30 min, IL-1b MSD assay, potency code
# Procedure: Blood is collected from healthy volunteers in heparin lithium tubes. • 2. Plate 90 μL of pooled blood per well in 96-well U-bottom plates. • 3. Add 5 uL of 20×LPS (20 ug/mL, final concentration of 1 ug/mL) and mix by gentle pipetting. • 4. Incubate in TC incubator for 4.5 hours. • 5. Add 5 uL of 20× compound or vehicle per well and mix by gentle pipetting. • a. Compounds are diluted 1/50 in HBSS to prepare a 20× dilution curve in 2% DMSO • 6. […]
Recorded IC50 values for a group of compounds are listed next.

- compound: "Clc1ccc(-c2nnc(NC[C@@H]3CCCO3)c3ccncc23)cc1 [Compound 2]"
  measured_target: "NLRP3 (Homo sapiens, UniProt Q96P20)"
  IC50: "< 300 nM"

Can you share its IC50? I mean this compound: CC1(CNc2ccc(-c3ccc(Br)cc3)nn2)CCCO1 (centres unmarked) [Compound 6] < 300 nM

Requested read-out: IC50. Entry: Clc1ccc(-c2nnc(NCC3CCCOC3)c3ccccc23)cc1 (centres unmarked) [Compound 9] 500 to 1000 nM

Which value of IC50 has been reported for Brc1ccc(-c2nnc(NCC3CCCO3)c3ccccc23)cc1 (centres unmarked) [Compound 7] in the records? > 1000 nM

What value of IC50 has been recorded for this entry: Clc1ccc(-c2nnc(NCC3CCCO3)c3ccncc23)cc1 (centres unmarked) [Compound 15] 500 to 1000 nM

Each recorded value in this set is attributed to patent US12281112B2.
